Experiment: qHTS Assay to Find Inhibitors of Chronic Active B-Cell Receptor Signaling: Hit Validation in Renilla Reporter Assay; also: nearly all actives have a fitted effect of over 70% in size; also: potency is read from the fitted curve at half-maximal effect
Settings: TMD8 IkB-Renilla luciferase reporter, NF-kB signaling; series mostly up to 57.5 µM
Among all 1,200 compounds or so, about 55 (5%) were called active. Roughly 15% stayed inconclusive and do not appear here. The list comes from a sample in which actives are over-represented; it also holds close analogues and randomly drawn compounds.

| Compound | Potency |
| --- | --- |
| CCc1cc2c(SCC(=O)Nc3ccc(NC(C)=O)cc3)ncnc2s1 | inactive |
| Cn1c(=O)n(Cc2ccccc2Cl)c2ccccc21 | inactive |
| COc1cc(C2C(C#N)=C(N)Oc3cc(N)ccc32)cc(OC)c1OC (configuration not stated) | inactive |
| COc1ccc(/C=N/NC(=O)CCn2cnc(-c3ccccc3)c2-c2ccccc2)cc1OC | inactive |
| COc1ccc(C(=O)N2CCc3cc(OC)c(OC)cc3C2c2ccc(OC)c(OC)c2)cc1 (configuration not stated) | inactive |
| N=C1SCC(=O)N1c1ncc(Cc2cccc(Cl)c2)s1 | 3.01 µM (active) |
| COc1ccc(/C=N/NC(=O)CCn2cnc(-c3ccccc3)c2-c2ccccc2)cc1 | 26.9 µM (active) |
| CCC(=O)Nc1nonc1-c1nc2ccccc2n1Cc1cccc2ccccc12 | inactive |
| CC1=CC(C)(C)N(S(=O)(=O)c2ccc(C)cc2)c2ccc(C)cc21 | inactive |
| COc1ccccc1C(=O)Nc1ccccc1SC(=O)c1ccccc1OC | 23.9 µM (active) |
| CC1CCc2c(sc(NC(=O)CSc3nc(N)cc(=O)[nH]3)c2C(N)=O)C1 (configuration not stated) | inactive |
| CCN(c1cccc(C)c1)S(=O)(=O)c1ccc(-c2cc(C)no2)s1 | inactive |
| Cc1ccc(C(=O)Sc2cccccc2=O)cc1 | 6.75 µM (active) |
| O=C(CSc1nc2ccccc2c(=O)n1-c1ccccc1F)NC1CC1 | inactive |
| CCOc1ccccc1NS(=O)(=O)c1ccc(-c2cnc(C3CC3)o2)cc1 | inactive |
| Cc1cc(C)cc(N2CC(O)=C(c3nc4ccccc4c(=O)[nH]3)C2=N)c1 | inactive |
| O=C(Cc1ccc(-n2c(=O)c3ccccc3n(Cc3ccccc3F)c2=O)cc1)NCC1CCCO1 (configuration not stated) | inactive |
| Cn1c(=O)[nH]c(=O)c2c1nc(SCC(N)=O)n2Cc1cccc(Br)c1 | inactive |
| CC(C)N1C(=O)/C(=C/c2nc3ccccc3c(=O)n2-c2ccccc2)c2ccccc21 | 13.5 µM (active) |
| N=C1SCC(=O)N1c1ncc(Cc2ccccc2Cl)s1 | 8.49 µM (active) |
| Cc1noc(C)c1CSc1ncnc2ccccc12 | inactive |
| COc1cc(NC(=S)NC(=O)c2ccccc2F)ccc1NC(=O)c1ccco1 | inactive |

====

Assay: qHTS Assay to Find Inhibitors of Chronic Active B-Cell Receptor Signaling: Hit Validation in Renilla Reporter Assay; also: nearly all actives have a fitted effect of over 70% in size
Settings: TMD8 IkB-Renilla luciferase reporter, NF-kB signaling; series mostly up to 57.5 µM
The whole screen tested about 1,200 compounds, of which about 55 (5%) were called active. Another 15% or so got no clear call; they are omitted. Calls come from the whole dose curve; as a rule, active = well fitted inhibition curve with a large enough effect; inconclusive = small, poorly fitted or top-dose-only effect; inactive = no such curve, though single readings can be large or run the other way. This is one part of a sample in which actives are shown more often than they occur.
Labels: 1 for active, 0 for inactive

| Compound | Cat |
| --- | --- |
| COc1ccc(NC(=O)C(=O)c2cn(CC(=O)N3CCCC3)c3ccccc23)cc1 | 0 |
| CNC(=S)N/N=C(\C)c1ccc2c(c1)OCCO2 | 0 |
| COC(=O)c1ccc(C)c(NS(=O)(=O)c2ccc(OC)cc2)c1 | 0 |
| CCOc1cc(/C=C2\CN(C)C/C(=C\c3ccc(O)c(OCC)c3)C2=O)ccc1O | 1 |
| COc1ccccc1-c1noc(CSc2nc(N)cc(=O)[nH]2)n1 | 0 |
| COc1ccccc1-c1nnc2sc(-c3ccc(N(C)C)cc3)nn12 | 0 |
| COc1cc(OC)cc(C(=O)NCc2ccc3c(c2)CCN3C(=O)c2ccccc2)c1 | 0 |
| CCOC(=O)C1=C(C)NC(C)=C(C(=O)OCC)C1/C=C/c1ccccc1 | 0 |
| Cc1cc(C)cc(NS(=O)(=O)c2ccc(-c3cnc(C4CC4)o3)cc2)c1 | 0 |
| O=C(N1CCN(c2ccccn2)CC1)N1c2ccccc2Sc2ccccc21 | 0 |
| CCOC(=O)C1=C(O)/C(=C/c2ccc(OCC(=O)O)c(OCC)c2)SC1=Nc1ccccc1 | 0 |
| O=C1NC(=Nc2ccc(O)cc2)S/C1=C\C=C\c1ccco1 | 0 |
| O=C(/C=C/c1cccs1)c1cc(Br)ccc1OC(=O)N1CCOCC1 | 1 |
| CCCC(=O)Nc1ccc2c(c1)nc(CN1CCN(C(=O)OCC)CC1)n2CC | 0 |
| COc1ccc(-c2[nH]ncc2/C=C(\C#N)C(=O)NC2CC2)cc1 | 0 |
| COC(=O)c1cc(C(=O)N2CCN(c3cccc(Cl)c3)CC2)cc([N+](=O)[O-])c1 | 0 |
| O=C(Oc1ccc2ccc(OC(=O)N3CCOCC3)cc2c1)N1CCOCC1 | 0 |
| Cc1ccc2c(c1)C(=O)C(=O)N2CC1COc2ccccc2O1 (centres undefined) | 0 |
| COc1ccc(-c2cnnn2-c2ccc(NC(=O)c3ccc(S(=O)(=O)N4CCCCC4)cc3)cc2)cc1OC | 0 |
| CCOC(=O)c1[nH]c2c(c1C)C(=O)CC(c1ccc(F)cc1)C2 (centres undefined) | 0 |
| CC(=O)N1CC(=O)N=C1SCC(=O)Nc1nc(C)c(-c2ccccc2)s1 | 0 |
| CCCn1nc(Oc2nc(N(C)C)nc(N(C)C)n2)ccc1=O | 0 |
| COc1ccc(-c2sc3cc(OC)c(OC)cc3c2C#CC(C)(C)O)cc1 | 0 |
| CCn1ncc(C2=NOC(C(=O)NCc3ccccc3)C2)c1C (centres undefined) | 0 |
| CC1=NN(C(N)=S)C(=O)C1N=Nc1cccc([N+](=O)[O-])c1 (centres undefined) | 0 |
| Cc1ccccc1Nc1nc(N)nc(COC(=O)c2cccc(S(=O)(=O)N(C)C)c2)n1 | 0 |
| C/C(=N\NC(=O)c1ccc(F)cc1)c1ccccn1 | 0 |
| CCc1ccc(NC(=O)C(C)OC(=O)/C=C/c2ccc(O)c(OC)c2)cc1 (centres undefined) | 0 |
| CCOc1ccc2c(c1)OC(c1ccc(OC)cc1)(C(F)(F)F)NC2=O (centres undefined) | 0 |
| CCn1c2ccccc2c2cc(NC(=O)c3cc(OC)cc(OC)c3)ccc21 | 0 |
| COc1cc(OC)cc(-c2cc3cc4c(cc3cn2)OCO4)c1 | 0 |
| Cc1ccc(N2C(=O)c3cccc4c(N)ccc(c34)C2=O)c2cccnc12 | 0 |
| Cc1ccccc1C(=O)Oc1ccc2ccc(O)cc2c1 | 0 |
| C#C[C@]1(O)CC[C@H]2[C@@H]3CCc4cc(O)ccc4[C@H]3CC[C@@]21C | 0 |
| CN(C)c1nc(=NCc2ccco2)ss1 | 1 |
| CCOC(=O)C(C)N1C(=O)S/C(=C/c2ccc3c(c2)n(C)c(=O)n3C)C1=O (centres undefined) | 0 |
| COc1ccc(S(=O)(=O)N2CCOCC2)cc1NC(=O)/C=C/c1ccc(F)cc1 | 0 |
| CCn1c(=O)c([N+](=O)[O-])c(Cl)c2ccccc21 | 1 |
| COc1ccc(OC)c(Nc2c3c(nc4ccccc24)CCC3)c1 | 0 |
| CCC1=Nc2cc(C(=O)NCCCOC(C)C)ccc2Sc2ccc(C)cc21 | 0 |
| COc1ccc(/C=C/c2ccncc2)cc1OC | 0 |
| CCCc1nc([N+](=O)[O-])c(S(=O)(=O)c2ccccc2)n1CC(C)C | 1 |
| CCOC(=O)c1[nH]c(C)c(C(=O)OCC)c1C | 0 |
| CCOc1ccc(OCc2ccc(C(=O)N/N=C(\C)c3ccccn3)cc2)cc1 | 0 |

====

Test: qHTS Assay to Find Inhibitors of Chronic Active B-Cell Receptor Signaling: Hit Validation in Renilla Reporter Assay; also: nearly all actives have a fitted effect of over 70% in size
Conditions: TMD8 IkB-Renilla luciferase reporter, NF-kB signaling; series mostly up to 57.5 µM
Among all 1,200 compounds or so, about 55 (5%) were called active. Roughly 15% stayed inconclusive and do not appear here. Calls follow the shape of the dose curve; as a rule, active = well fitted inhibition curve with a large enough effect; inconclusive = small, poorly fitted or top-dose-only effect; inactive = no such curve, though single readings can be large or run the other way. What follows is part of a selection rich in actives, with near analogues and random picks from the rest.
Outcome codes: YES = active, NO = inactive

| Molecular string | Cat |
| --- | --- |
| S=c1[nH]nc(-c2ccco2)n1/N=C/C(Cl)=C/c1ccccc1 | YES |
| CCOc1ccc(NC(=O)c2cc(OC)nc3ccccc23)cc1 | NO |
| COc1cc(/C=N/N(C)c2ccccc2)ccc1O | NO |
| COC(=O)[C@@H]1[C@@H](C#N)C2(c3ccccc3-c3ccccc32)N(c2ccc(Cl)cc2)N1C#N | YES |
| Nc1cc(=O)[nH]c(SCC(=O)Nc2cc(Cl)cc(Cl)c2)n1 | NO |
| COc1ccc(-c2c(-c3cc(OC)c(OC)c(OC)c3)noc2C)cn1 | NO |
| Cc1ccc(C(=O)c2cc([N+](=O)[O-])ccc2N2CCCCC2)cc1C | NO |
| CCOc1ccc(S(=O)(=O)Nc2ccc3oc(C)c(C(=O)OCCOC)c3c2)cc1 | NO |

Every entry's value here was drawn from PubChem BioAssay AID651568.
